# assayComment: yeast display, Sf9 membrane polyspecificity reagent, FACS + sequencing; frameworks hold sequencing errors

macromoleculeSequence	polyreactivity (PSR sort gate)
QVQLVESGGGLVQAGGSLRLSCAASGRIFEVYAMGWYRQAPGKERELVAAIRSGGNTYYADSVKGRFTISRDNAKNTVYLQMISLKPEDTAVYYCAARYKPPFGGYTYYYWGQGTQVTVSS	high polyreactivity
QVQLVESAGGLVQAGGSLRLSCAASGIISRWYAMGWYRQAPGKERELVAAITRGGNTYYADSVKGRFTISRDNAKNTVYLQMNSLKPEDTAVYYCAARTPSRYLYFEYDYWGQGTQVTVSS	low polyreactivity
QVLLVESGGGLVQAGGSLRLSCAASGFIFVDYAMGWYRQAHGKERELVAAITSSGDRTYYADSVKGRFTISRDNAKNTVYLQMNSLKPEDTAVYYCNADWSTACYTSYDYWGQGTQVTVSS	low polyreactivity
QVQLVESAGGLVQAGGSLRISCAASGRTFFKYAMGWYSQAPGKERELVAAITGRGGSTYADSVKGRFTISRDNAKNTVYLQINSLKPEDTSVFYCAKVYQRGAQYYYYKYDYWGQGTQVTVSS	high polyreactivity
QVQLVESGGGLVQAGGSLRLSCAASGGIFLKYAMAWYRQAPGKERELVASINTGVRTYYADSVKGRFTISRDNAKNTVYLQMNSLKPEDTAVYYCYADGGGPRKYTRTRGHWGQGTQVTVSS	low polyreactivity
QVQLVESGGGLVQAGGSLRLTCAASGSIFRWNAMGWYRQAPGKERELVASITSGGSTYYADSVKGRFTISRDNAKNTVYLQMISLKPEDTAVYYCAAARYPGRKFDYWGQGTQVTVSS	high polyreactivity
QVQLVESGGGLVQAGGSLRLSCAASGITFRWYTMGWYRQAPGKERELVAAITSSGARTYYADSVKGRFTISRDNAKNTVYLQMNSLKPEDTAVYYCAATQTRFAAKDEYWGQGTQVTVSS	high polyreactivity
QVQLVESGGGLVQAGGSLRLSCASSGTFFGYAMGWYRQAPGKERELVAAITSGGSTYYADSVKGRFTISRDNAKNTVYLQMNSLKPEDTAGYYCARVYSRWSYRYDYWGQGTQVTVST	low polyreactivity
QVQLVESGGGLVQAGGSLRLSCAASGITFDGNAMGWYRQAPGKERELVAGISGSGGGTYYADSVKGRFTISRDNAKNTVYLQMNSLKPEDTAVYYCAADTSTSHAYDYWGQGTQVTVSS	low polyreactivity
QVQLVESGGGLVQAGGSLRLSCAASGSIFGGNAMGWYRQAPGKERELVATITVRGGSTYYADSVKGRFTISRDNAKHTVYLQMNSLKPEDTAVYYCAARGGYLLPKYDYWGQGTQVTVSS	low polyreactivity
QVQLVESGGGLVQAGGSLRLICAASGYNCKYYAMGWYRAAPGKERELVASITSGGRTNYADSVKGRFTISRDNAKNTVYLQMNSLKPEDTAVYYCASRKPWKFVRTYTYDYWGQGTQLTVSS	high polyreactivity
